conditions: in n-propanol, 288.15 K
Assay Readout: solubility (mole fraction)

Structure Notation	Result
O=C1C=CC(=O)N1c1ccccc1Br	0.0106

###

details: in n-butanol, 323.15 K
Assay Readout: solubility (mole fraction)

Structure Notation	Readout Number
O=C1C=CC(=O)N1c1ccccc1Br	0.0284

###

settings: in NMP, 313.15 K

Structure Notation	solubility (mole fraction)
O=C1C=CC(=O)N1c1ccccc1Br	0.324

###

details: in DMF, 293.15 K

Structure Notation	solubility (mole fraction)
O=C1C=CC(=O)N1c1ccccc1Br	0.219

###

settings: in DMF, 308.15 K
Assay Readout: solubility (mole fraction)

Structure Notation	Readout Number
O=C1C=CC(=O)N1c1ccccc1Br	0.318

###

conditions: in methanol, 283.15 K

Structure Notation	solubility (mole fraction)
O=C1C=CC(=O)N1c1ccccc1Br	0.0162

###

conditions: in n-butanol, 318.15 K

Structure Notation	solubility (mole fraction)
O=C1C=CC(=O)N1c1ccccc1Br	0.0247

###

settings: in isobutanol, 313.15 K

Structure Notation	solubility (mole fraction)
O=C1C=CC(=O)N1c1ccccc1Br	0.0234

###

details: in acetonitrile, 288.15 K
Assay Readout: solubility (mole fraction)

Structure Notation	Assay Readout	Readout Number
O=C1C=CC(=O)N1c1ccccc1Br	solubility (mole fraction)	0.0422

###

conditions: in DMF, 303.15 K
Assay Readout: solubility (mole fraction)

Structure Notation	Assay Readout	Readout Number
O=C1C=CC(=O)N1c1ccccc1Br	solubility (mole fraction)	0.284

###

conditions: in water, 313.15 K

Structure Notation	solubility (mole fraction)
O=C1C=CC(=O)N1c1ccccc1Br	0.000812

###

details: in methanol, 278.15 K

Structure Notation	solubility (mole fraction)
O=C1C=CC(=O)N1c1ccccc1Br	0.0134

###

conditions: in NMP, 323.15 K
Assay Readout: solubility (mole fraction)

Structure Notation	Assay Readout	Readout Number
O=C1C=CC(=O)N1c1ccccc1Br	solubility (mole fraction)	0.424

###

settings: in DMF, 298.15 K
Assay Readout: solubility (mole fraction)

Structure Notation	Assay Readout	Readout Number
O=C1C=CC(=O)N1c1ccccc1Br	solubility (mole fraction)	0.253

###

settings: in DMF, 283.15 K
Assay Readout: solubility (mole fraction)

Structure Notation	Assay Readout	Result
O=C1C=CC(=O)N1c1ccccc1Br	solubility (mole fraction)	0.163

###

details: in acetone, 323.15 K

Structure Notation	solubility (mole fraction)
O=C1C=CC(=O)N1c1ccccc1Br	0.356

###

settings: in NMP, 298.15 K
Assay Readout: solubility (mole fraction)

Structure Notation	Result
O=C1C=CC(=O)N1c1ccccc1Br	0.212

###

conditions: in DMF, 323.15 K
Assay Readout: solubility (mole fraction)

Structure Notation	Assay Readout	Readout Number
O=C1C=CC(=O)N1c1ccccc1Br	solubility (mole fraction)	0.473

###

conditions: in methanol, 318.15 K
Assay Readout: solubility (mole fraction)

Structure Notation	Readout Number
O=C1C=CC(=O)N1c1ccccc1Br	0.0604

###

conditions: in water, 318.15 K

Structure Notation	solubility (mole fraction)
O=C1C=CC(=O)N1c1ccccc1Br	0.000979

###

settings: in ethanol, 283.15 K

Structure Notation	solubility (mole fraction)
O=C1C=CC(=O)N1c1ccccc1Br	0.0134

###

conditions: in n-butanol, 283.15 K

Structure Notation	solubility (mole fraction)
O=C1C=CC(=O)N1c1ccccc1Br	0.00717

###

details: in methanol, 293.15 K

Structure Notation	solubility (mole fraction)
O=C1C=CC(=O)N1c1ccccc1Br	0.0249

###

conditions: in methanol, 323.15 K

Structure Notation	solubility (mole fraction)
O=C1C=CC(=O)N1c1ccccc1Br	0.0702

###

settings: in isopropanol, 288.15 K

Structure Notation	solubility (mole fraction)
O=C1C=CC(=O)N1c1ccccc1Br	0.0126

###

settings: in n-butanol, 313.15 K
Assay Readout: solubility (mole fraction)

Structure Notation	Assay Readout	Result
O=C1C=CC(=O)N1c1ccccc1Br	solubility (mole fraction)	0.021

###

details: in NMP, 288.15 K
Assay Readout: solubility (mole fraction)

Structure Notation	Readout Number
O=C1C=CC(=O)N1c1ccccc1Br	0.154

###

settings: in isopropanol, 323.15 K

Structure Notation	solubility (mole fraction)
O=C1C=CC(=O)N1c1ccccc1Br	0.0429

###

conditions: in ethanol, 298.15 K
Assay Readout: solubility (mole fraction)

Structure Notation	Assay Readout	Readout Number
O=C1C=CC(=O)N1c1ccccc1Br	solubility (mole fraction)	0.0245

###

details: in n-butanol, 298.15 K

Structure Notation	solubility (mole fraction)
O=C1C=CC(=O)N1c1ccccc1Br	0.0127

###

conditions: in cyclohexane, 298.15 K

Structure Notation	solubility (mole fraction)
O=C1C=CC(=O)N1c1ccccc1Br	0.00403

###

details: in n-propanol, 323.15 K

Structure Notation	solubility (mole fraction)
O=C1C=CC(=O)N1c1ccccc1Br	0.0372

###

details: in ethylene glycol, 318.15 K

Structure Notation	solubility (mole fraction)
O=C1C=CC(=O)N1c1ccccc1Br	0.016

###

conditions: in acetonitrile, 278.15 K

Structure Notation	solubility (mole fraction)
O=C1C=CC(=O)N1c1ccccc1Br	0.0291

###

conditions: in acetone, 308.15 K

Structure Notation	solubility (mole fraction)
O=C1C=CC(=O)N1c1ccccc1Br	0.223

###

settings: in n-propanol, 278.15 K

Structure Notation	solubility (mole fraction)
O=C1C=CC(=O)N1c1ccccc1Br	0.00717

###

conditions: in DMSO, 293.15 K

Structure Notation	solubility (mole fraction)
O=C1C=CC(=O)N1c1ccccc1Br	0.156

###

conditions: in ethanol, 293.15 K
Assay Readout: solubility (mole fraction)

Structure Notation	Result
O=C1C=CC(=O)N1c1ccccc1Br	0.0204

###

settings: in NMP, 283.15 K
Assay Readout: solubility (mole fraction)

Structure Notation	Readout Number
O=C1C=CC(=O)N1c1ccccc1Br	0.131

###

details: in water, 283.15 K
Assay Readout: solubility (mole fraction)

Structure Notation	Readout Number
O=C1C=CC(=O)N1c1ccccc1Br	0.000217

###

settings: in DMF, 288.15 K

Structure Notation	solubility (mole fraction)
O=C1C=CC(=O)N1c1ccccc1Br	0.189

###

settings: in n-propanol, 308.15 K
Assay Readout: solubility (mole fraction)

Structure Notation	Assay Readout	Readout Number
O=C1C=CC(=O)N1c1ccccc1Br	solubility (mole fraction)	0.0225

###

conditions: in isopropanol, 293.15 K

Structure Notation	solubility (mole fraction)
O=C1C=CC(=O)N1c1ccccc1Br	0.0157

###

conditions: in acetonitrile, 283.15 K

Structure Notation	solubility (mole fraction)
O=C1C=CC(=O)N1c1ccccc1Br	0.0347

###

conditions: in acetonitrile, 303.15 K

Structure Notation	solubility (mole fraction)
O=C1C=CC(=O)N1c1ccccc1Br	0.0723

###

details: in methanol, 298.15 K

Structure Notation	solubility (mole fraction)
O=C1C=CC(=O)N1c1ccccc1Br	0.03

###

details: in isobutanol, 323.15 K

Structure Notation	solubility (mole fraction)
O=C1C=CC(=O)N1c1ccccc1Br	0.0328

###

settings: in n-propanol, 303.15 K
Assay Readout: solubility (mole fraction)

Structure Notation	Assay Readout	Result
O=C1C=CC(=O)N1c1ccccc1Br	solubility (mole fraction)	0.0187

###

settings: in n-butanol, 293.15 K

Structure Notation	solubility (mole fraction)
O=C1C=CC(=O)N1c1ccccc1Br	0.0106

###

details: in water, 278.15 K

Structure Notation	solubility (mole fraction)
O=C1C=CC(=O)N1c1ccccc1Br	0.000175

###

settings: in n-propanol, 313.15 K

Structure Notation	solubility (mole fraction)
O=C1C=CC(=O)N1c1ccccc1Br	0.0271

###

conditions: in ethylene glycol, 308.15 K

Structure Notation	solubility (mole fraction)
O=C1C=CC(=O)N1c1ccccc1Br	0.0115

###

conditions: in DMSO, 308.15 K
Assay Readout: solubility (mole fraction)

Structure Notation	Readout Number
O=C1C=CC(=O)N1c1ccccc1Br	0.238

###

settings: in cyclohexane, 288.15 K

Structure Notation	solubility (mole fraction)
O=C1C=CC(=O)N1c1ccccc1Br	0.00275

###

settings: in acetone, 313.15 K

Structure Notation	solubility (mole fraction)
O=C1C=CC(=O)N1c1ccccc1Br	0.263

###

details: in isopropanol, 313.15 K

Structure Notation	solubility (mole fraction)
O=C1C=CC(=O)N1c1ccccc1Br	0.0317

###

details: in ethanol, 303.15 K
Assay Readout: solubility (mole fraction)

Structure Notation	Result
O=C1C=CC(=O)N1c1ccccc1Br	0.0287

###

settings: in acetone, 293.15 K

Structure Notation	solubility (mole fraction)
O=C1C=CC(=O)N1c1ccccc1Br	0.144

###

settings: in DMF, 313.15 K
Assay Readout: solubility (mole fraction)

Structure Notation	Readout Number
O=C1C=CC(=O)N1c1ccccc1Br	0.363

###

settings: in NMP, 278.15 K

Structure Notation	solubility (mole fraction)
O=C1C=CC(=O)N1c1ccccc1Br	0.117
